# targetOrTestSystem: BgaD-D, smallest isozyme of the β-galactosidase from B. circulans ATCC 31382 (Biolacta) (Bacillus circulans ATCC 31382)
# experiment: bead assay, purified proteins, target given as BgaD-D/WT, titrated 0-1000 nM shown, 1:1 fit [panel a]
pKd: −log10 of the molar value.
reportedMetric: pKd

These solved cases illustrate the format of a correct answer.
>>> measuredvalue("Mb(BgaD_L19) (designed binder) VSSVPTKLEVVAATPTSLLISWDAFDGYWYDYVSYYRITYGETGGNSPVQEFTVPSSSSTATISGLKPGVDYTITVYAYSHSQQQYLSPISINYRT")
7.43
>>> measuredvalue("Mb(BgaD_S10) (designed binder) VSSVPTKLEVVAATPTSLLISWDAPAVTVVFYLITYGETGASSWPGYQEFTVPGSKSTATISGLKPGVDYTITVYAQYPWDTGSPISINYRT")
7.89
>>> measuredvalue("Mb(BgaD_L02) (designed binder) VSSVPTKLEVVAATPTSLLISWDANGWNYVKYYRITYGETGGNSPVQEFTVPGSSSTATISGLKPGVDYTITVYAYEYYSESSSSPISINYRT")
8.00

1. Mb(BgaD_S09) (designed binder) VSSVPTKLEVVAATPTSLLISWDAPAVTVVYYVITYGETGGNSPVQEFTVPGSKSTATISGLKPGVDYTITVYAYSDQVEYYEYFYGSPISINYRT
2. Mb(BgaD_L23) (designed binder) VSSVPTKLEVVAATPTSLLISWDAFDGYWYDYVSFYRITYGESGGNSPVQEFTVPSSSSTATISGLKPGVDYTITVYAYSHSQQQYLSPNSINYRT
Among 1 and 2 , whose measured pKd is the smaller figure? I would appreciate it if you answered with the label of your choice.
1

Reference for the values: patent US20180208678A1
